These entries and their values trace back to paper PMC5607265.

# System: fibrosarcoma HT-1080 cells
# procedure_summary: MTT antiproliferative assay, HT-1080
# Assay type: cell-based, human
# protocol_conditions: Homo sapiens, HT-1080, 24 h, read-out: IC50 HT-1080
experimental_endpoint: IC50 (nM)
Kindly provide the numeric value in nM only, without the unit symbol.

COc1ccc(C2=Nn3c(nnc3-c3cc(OC)c(OC)c(OC)c3)SC2)cc1O | 47

Next, consider the following compound.
Q) Would you mind telling me what IC50 value was observed for COc1ccc(C2=Nn3c(nnc3-c3ccc(OC)c(OC)c3OC)SC2)cc1N ?
A) 890

###

# System: SGC-7901, A549 and HT-1080 cell lines
# procedure_summary: MTT antiproliferative assay, span over the three cell lines
# Assay type: cell-based, human
# protocol_conditions: SGC-7901, A549 and HT-1080; MTT assay
experimental_endpoint: antiproliferative activity in words

COc1ccc(C2=Nn3c(nnc3-c3ccc(OC)c(OC)c3OC)SC2)cc1N | only moderate activity
COc1ccc(C2=Nn3c(nnc3-c3ccc(OC)c(OC)c3OC)SC2)cc1O | only moderate activity

###

# Test system: fibrosarcoma HT-1080 cells
# procedure_summary: MTT antiproliferative assay, HT-1080
# Assay type: cell-based, human
# protocol_conditions: MTT assay, 24 h exposure, triplicate; read-out: IC50 HT-1080
experimental_endpoint: IC50 (µM)
Provide only the numeric value, understood in µM.

COc1ccc(-c2nnc3n2N=C(c2ccc(C)cc2)CS3)c(OC)c1OC [Compound 4d] | 0.028

The record that follows has no IC50 shown yet.
Q) I have this compound here, COc1cc(-c2nnc3n2N=C(c2ccc(C)cc2)CS3)cc(OC)c1OC [Compound 5b] , and I need its recorded IC50.
A) 0.016

###

# measured_on: highly purified tubulin from porcine brain (Sus scrofa)
# Sequence (P02554 whole entry): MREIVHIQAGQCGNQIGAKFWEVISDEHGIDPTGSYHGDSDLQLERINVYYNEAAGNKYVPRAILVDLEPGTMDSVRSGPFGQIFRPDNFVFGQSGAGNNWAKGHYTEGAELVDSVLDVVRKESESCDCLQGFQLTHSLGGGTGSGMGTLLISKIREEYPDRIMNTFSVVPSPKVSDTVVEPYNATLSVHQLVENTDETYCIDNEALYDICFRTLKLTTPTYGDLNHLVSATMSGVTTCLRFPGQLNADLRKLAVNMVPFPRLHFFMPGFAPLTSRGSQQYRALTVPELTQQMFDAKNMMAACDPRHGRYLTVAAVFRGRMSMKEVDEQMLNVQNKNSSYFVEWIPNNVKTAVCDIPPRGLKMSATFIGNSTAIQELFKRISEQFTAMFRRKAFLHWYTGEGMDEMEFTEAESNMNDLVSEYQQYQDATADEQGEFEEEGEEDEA
# Sequence (P02550 whole entry partner): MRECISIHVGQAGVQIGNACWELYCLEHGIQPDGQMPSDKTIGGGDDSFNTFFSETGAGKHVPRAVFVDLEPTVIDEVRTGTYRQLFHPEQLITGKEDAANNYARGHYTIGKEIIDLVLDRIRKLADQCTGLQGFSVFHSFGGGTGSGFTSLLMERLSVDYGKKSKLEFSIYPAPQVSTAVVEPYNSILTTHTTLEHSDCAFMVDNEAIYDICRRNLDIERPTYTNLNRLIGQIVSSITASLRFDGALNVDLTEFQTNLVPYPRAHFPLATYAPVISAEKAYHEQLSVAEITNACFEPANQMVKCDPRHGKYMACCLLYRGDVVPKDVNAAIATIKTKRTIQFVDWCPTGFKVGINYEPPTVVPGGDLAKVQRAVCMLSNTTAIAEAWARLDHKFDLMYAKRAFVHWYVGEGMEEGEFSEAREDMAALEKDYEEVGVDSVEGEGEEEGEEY
experimental_endpoint: IC50 (µM)
Just the number please, in µM, no unit attached.

Q) Tell me the measured IC50 of COc1cccc(-c2nnc3n2N=C(c2ccc(OC)c(N)c2)CS3)c1 , please.
A) 1.6

###

Reported melting point values for a set of molecules

Some molecules with recorded melting point:
COc1ccc(C2=Nn3c(nnc3-c3ccc4c(c3)OCO4)SC2)cc1OCc1ccccc1 [Compound 6d] | 86 to 88 °C
COc1ccc(-c2nnc3n2N=C(c2ccc(OC)c([N+](=O)[O-])c2)CS3)cc1 [Compound 6j] | 97 to 99 °C
COc1cc(-c2nnc3n2N=C(c2ccc(C(F)(F)F)cc2)CS3)cc(OC)c1OC [Compound 5c] | 105 to 106 °C

Q) Can you look up the measured melting point of COc1ccc(-c2nnc3n2N=C(c2ccc(SC)cc2)CS3)c(OC)c1OC [Compound 4g] for me?
A) 86 to 88 °C

###

Collected melting point values appear next to each entry.

COc1ccc(C2=Nn3c(nnc3-c3ccc4c(c3)OCO4)SC2)cc1O [Compound 6e] | 85 to 87 °C
COc1ccc(-c2nnc3n2N=C(c2ccc(OC)c([N+](=O)[O-])c2)CS3)cc1OC [Compound 6f] | 190 to 192 °C
COc1ccc(C2=Nn3c(nnc3-c3ccc(OC)c(OC)c3)SC2)cc1N [Compound 6g] | 213 to 215 °C

// below: melting point requested for another compound
Q) Can you look up the measured melting point of COc1ccc(C2=Nn3c(nnc3-c3ccc(OC)c(OC)c3OC)SC2)cc1[N+](=O)[O-] [Compound 4i] for me?
A) 134 to 136 °C
